Attribution: ChEMBL document CHEMBL1140159

Listed here are compounds together with their documented IC50.
Tested on: MCF7
Assay: Antiproliferative activity against human MCF7 cells after 72 hrs
Format: functional, cell-based
Conditions: MCF7, 72 h
observed.property: IC50 (µM)

1) CC(=O)O[C@@H]1C[C@H]2C(C)(C)C(=O)C=C[C@]2(C)[C@H]2CC[C@@]3(C)[C@H](c4ccoc4)OC(=O)[C@H]4O[C@]43[C@@]21C [GEDUNIN]	8.84
2) CC(=O)O[C@@H]1C[C@H]2C(C)(C)/C(=N/O)C=C[C@]2(C)[C@H]2CC[C@@]3(C)[C@@H](c4ccoc4)O/C(=N\O)[C@H]4O[C@]43[C@@]21C	33.2
3) CC(=O)O[C@@H]1C[C@H]2C(C)(C)C(O)C=C[C@]2(C)[C@H]2CC[C@@]3(C)C(c4ccoc4)OC(O)[C@H]4O[C@]43[C@@]21C (single isomer, unassigned)	47.7
